- Study Target: ΔF508-CFTR (Homo sapiens, UniProt P13569, DEL508-508)
- Construct: host or cells: CFBE41o-, doxycycline-inducible
- Sequence (P13569 with tags, fused parts or gaps DEL508-508): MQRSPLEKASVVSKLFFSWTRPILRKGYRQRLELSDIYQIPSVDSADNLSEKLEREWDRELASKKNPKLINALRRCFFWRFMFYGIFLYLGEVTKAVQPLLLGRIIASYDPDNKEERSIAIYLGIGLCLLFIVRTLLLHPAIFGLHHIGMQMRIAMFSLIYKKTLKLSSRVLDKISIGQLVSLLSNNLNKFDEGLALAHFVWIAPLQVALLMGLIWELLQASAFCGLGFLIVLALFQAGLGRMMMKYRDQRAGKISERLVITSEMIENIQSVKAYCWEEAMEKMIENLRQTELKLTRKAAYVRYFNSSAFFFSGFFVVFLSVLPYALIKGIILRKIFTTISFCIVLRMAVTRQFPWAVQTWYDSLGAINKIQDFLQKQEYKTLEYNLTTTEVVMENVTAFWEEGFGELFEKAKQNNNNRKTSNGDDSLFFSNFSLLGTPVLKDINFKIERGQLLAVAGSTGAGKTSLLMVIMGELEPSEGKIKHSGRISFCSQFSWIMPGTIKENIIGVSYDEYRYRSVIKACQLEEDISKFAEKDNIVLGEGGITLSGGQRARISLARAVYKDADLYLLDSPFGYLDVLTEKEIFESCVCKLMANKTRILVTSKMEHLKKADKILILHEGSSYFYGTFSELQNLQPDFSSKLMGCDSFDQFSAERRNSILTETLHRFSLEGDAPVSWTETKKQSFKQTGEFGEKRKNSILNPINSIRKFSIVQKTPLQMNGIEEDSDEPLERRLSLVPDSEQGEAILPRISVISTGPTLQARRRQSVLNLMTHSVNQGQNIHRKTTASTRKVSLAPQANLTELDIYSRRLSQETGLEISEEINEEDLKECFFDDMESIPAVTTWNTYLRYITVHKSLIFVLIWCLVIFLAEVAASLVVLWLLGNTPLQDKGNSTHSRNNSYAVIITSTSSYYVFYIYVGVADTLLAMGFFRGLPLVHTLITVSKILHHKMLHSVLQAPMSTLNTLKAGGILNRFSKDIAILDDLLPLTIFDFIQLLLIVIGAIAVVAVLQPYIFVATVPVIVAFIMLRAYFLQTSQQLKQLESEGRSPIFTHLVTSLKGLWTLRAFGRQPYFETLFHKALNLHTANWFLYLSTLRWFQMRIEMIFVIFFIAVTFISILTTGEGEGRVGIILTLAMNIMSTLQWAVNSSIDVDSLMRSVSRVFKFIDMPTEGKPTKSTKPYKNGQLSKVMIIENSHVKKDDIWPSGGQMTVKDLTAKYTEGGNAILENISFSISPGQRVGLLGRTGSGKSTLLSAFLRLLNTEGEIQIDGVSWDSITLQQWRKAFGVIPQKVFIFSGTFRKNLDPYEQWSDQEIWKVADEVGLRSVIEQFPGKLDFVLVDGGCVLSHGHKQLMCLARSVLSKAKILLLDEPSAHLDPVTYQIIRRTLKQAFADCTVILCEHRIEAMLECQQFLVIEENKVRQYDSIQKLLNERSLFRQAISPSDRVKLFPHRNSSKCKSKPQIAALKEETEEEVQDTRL
- Procedure Text: CFTR cell surface levels using HRP-tagged ΔF508-CFTR expressing CFBE cells, in the presence of a co-corrector
- Assay type: cell-based
- Reported Conditions: HRP-tagged ΔF508-CFTR CFBE cells, in the presence of 3 μM co-corrector
I'd be grateful if you could share measured % Activation for these entries.

Record excerpt, results attached:
{"columns": ["Molecule", "Endpoint Label", "Reported Value"],
 "data": [
  ["COCCS(=O)(=O)NC(=O)c1cc(N2CCC(COC)CC2)c2c(C3CCC3)nn(-c3ccccc3)c2n1 [Compound 256]", "% Activation", "508.63%"],
  ["CCCCOC1CCN(c2cc(C(=O)NS(C)(=O)=O)nc3c2c(C(C)C)nn3-c2ccc(F)cc2)CC1 [Compound 172]", "% Activation", "462.4%"],
  ["CCS(=O)(=O)NC(=O)c1cc(-c2ccc(N(C)C)nc2)c2c(C(C)C)nn(-c3cccc(N4CCOCC4)c3)c2n1 [Compound 32]", "% Activation", "526%"],
  ["COC[C@@H]1CCCN1C1CCN(S(=O)(=O)NC(=O)c2cc(N3CCC(N4CCOCC4)CC3)c3c(C4CCC4)nn(-c4ccccc4)c3n2)CC1 [Compound 439]", "% Activation", "374.6%"],
  ["CCS(=O)(=O)NC(=O)c1cc(-c2ccc(N3CCOCC3)cc2)c2c(C)nn(-c3cccc(Cl)c3)c2n1 [Compound 66]", "% Activation", "332.85%"]
]}

List reported % Activation for each of these molecules:
1. CN(C)S(=O)(=O)NC(=O)c1cc(N2CCC(N3CCN(C4CC4)CC3)CC2)c2c(C3CCC3)nn(-c3ccc(F)cc3)c2n1 [Compound 583]
2. O=C(NS(=O)(=O)C1CCOC1)c1cc(N2CCC(CCN3CCOCC3)CC2)c2c(C3CCC3)nn(-c3ccc(F)cc3)c2n1 (stereo not drawn) [Compound 452]

Ans:
["480.15%", "478.25%"]
